System: SK-MEL-28 melanoma
Test: NCI-60 one-dose screen, 48 h (100 = growth as untreated, 0 = no growth, -100 = all killed)
Conditions: 10 µM unless noted
Procedure: Growth inhibition of the SK-MEL-28 human tumor cell line is measured as a screen for anti-cancer activity. Cells are grown in 96 well plates and exposed to the test compound for 48 hours. Compounds are tested at a single concentration, which is 10^-5 M for most compounds. The reported endpoint is percent growth (GI% or GIPRCNT), where numbers from 0 - 100% represent growth inhibition, and numbers from -100% - 0 represent cell death. For example, a value of 40 represents 60% growth inhibition. […]
The panel holds about 83,000 compounds, 20% with a hit somewhere; the sample as a whole holds those more often. The source made the active and inactive calls. How the source made its calls: active means growth percent below 10; inactive means the rest.
Measurement Label: growth

Sample answers from the record:
CC/C=C\CCC/C=C1/C(=O)C=C[C@@H]1C/C=C\CCCC(=O)OC
61.3% (inactive)
C=C1CC[C@@H]2[C@](C)(COC(C)=O)[C@H](OC(C)=O)CC[C@@]2(C)[C@@H]1CC(Nc1ccc(S(=O)(=O)NC(C)=O)cc1)C1=CCOC1=O (some centres not stated)
-36.6% (active)
c1ccc2c(c1)CCCc1nnc3nc4ccccc4n3c1-2
83.7% (inactive)
CCn1cc(CNc2ccc(C(=O)Nc3cc4cc(OC)c(OC)cc4c(C)n3)cc2)cn1
70.5% (inactive)
O=C(NNC(=O)c1nc2cc(F)ccc2n2cccc12)c1cnccn1
36.4% (inactive)

Task: Any idea what growth was measured for CCOC(=O)c1ccccc1-c1c2ccc(=[N+](C)C)cc-2oc2cc(N(C)C)ccc12 ?
Result: 32% (inactive)

Task: Any idea what growth was measured for O=C(Cc1ccccc1)Nc1cccc(N=Cc2ccccc2O)c1 ?
Result: 111% (inactive)

----------
Overview of recorded growth for various compounds
system: NCI-H522 lung; assay: NCI-60 one-dose screen, 48 h (100 = growth as untreated, 0 = no growth, -100 = all killed); conditions: 10 µM unless noted
About 83,000 compounds went through this panel and 20% of them were active in at least one assay; those are over-represented in the sample as a whole.
Respond numerically; units are % and should not be typed.

Sample answers from the record:
Cc1cccc[n+]1C1c2ccccc2-c2ccccc21
57.9
CN1CCN(C(=O)[C@@]2(C)CC[C@]3(C)CC[C@]4(C)C(=CC[C@@H]5[C@@]6(C)CCC(=O)NC(C)(C)[C@@H]6CC[C@]54C)[C@@H]3C2)CC1
74.8

Task: Any idea what growth was measured for O=C(Nc1ccccc1[N+](=O)[O-])c1ccc(Cl)c(Cl)c1 ?
Result: 69.9

Task: Any idea what growth was measured for Cc1ccc(/C=C/C(=O)Nc2ncc(Cc3ccc(F)cc3)s2)o1 ?
Result: 38

Task: Any idea what growth was measured for Cc1c2cccnc2c(C)c2c1c1cc(CO)ccc1n2C ?
Result: 30.3

Task: Any idea what growth was measured for CC(C)N1C(=O)/C(=c2\sc3n(c2=O)C2C(NN=3)N(C)C(=O)N2C)c2ccccc21 (stereo unspecified) ?
Result: 33.9

Task: Any idea what growth was measured for O=C1Nc2c(C(=O)O)cccc2/C1=N/c1n[nH]c(=S)s1 ?
Result: 81.1

Task: Any idea what growth was measured for NC1=Nc2cc(OCCCCN3Cc4ccccc4C3)c(OCC3CC3)cc2C12CCCC2 ?
Result: 67.3

Task: Any idea what growth was measured for COc1ccc(Oc2nc(Nc3ccc(N4CCOCC4)cc3)ncc2NC(=O)Nc2cc(OC)cc(OC)c2)cc1 ?
Result: 4.69

Task: Any idea what growth was measured for COc1cccc(CNc2c3ccccc3nc3ccccc23)c1 ?
Result: 61.7

Task: Any idea what growth was measured for CCN1CCN(CC(=O)Nc2ccc(-c3cn4c(n3)sc3cc(Oc5ccnc(C(=O)NC)c5)ccc34)cc2)CC1 ?
Result: 83.7

Task: Any idea what growth was measured for CN(Cc1cc(Br)cc(Br)c1O)Cc1cc(Br)cc(Br)c1O ?
Result: 3.36

Task: Any idea what growth was measured for CN1CCN(Cc2ccc(NC(=O)c3cncc(C#Cc4cnc(N)c5ncccc45)c3)cc2C(F)(F)F)CC1 ?
Result: 9.75

Task: Any idea what growth was measured for COc1ccc(/C=C/c2ccc3ccccc3n2)c(OC)c1 ?
Result: 72.5

Task: Any idea what growth was measured for CC(=O)c1ccc(Nc2nccc(-c3ccc4ccccc4c3)n2)cc1 ?
Result: 45.6

Task: Any idea what growth was measured for CN1C(=O)/C(=C2\SC(=Nc3ccccc3)N(Nc3ccccc3)C2=O)c2ccccc21 ?
Result: 94.5

Task: Any idea what growth was measured for O=C(NC(Cc1nnc2n(Cc3ccccc3)c(=O)c3c4c(sc3n12)CCCC4)c1ccccc1)c1ccccc1 (stereo unspecified) ?
Result: 94.8

Task: Any idea what growth was measured for COc1ccccc1C(=O)Nc1cccc(NC(=O)c2ccoc2C)c1 ?
Result: 13.9
